tested on: IL10 secretion in OCI-LY10 cells; assay: Human IL10 secretion assay, Assay 1 (HTRF); assay type: cell-based; conditions: 24 h incubation, read-out: IL-10 Secretion IC50 [nM] Assay 1
QUANTITY KIND: IC50

# lookup: IC50 of C[C@]1(C(F)(F)F)C[C@H](C(=O)Nc2cnc(-n3nccn3)c(Cl)c2)c2cnc3cc(Cl)nn3c21 (single isomer, unassigned)
100 to 1000 nM

CC1(C)CCC(C(=O)Nc2cnc(-n3nccn3)c(Cl)c2)c2cnc3cc(Cl)nn3c21 (single isomer, unassigned) , same question.
100 to 1000 nM

Another compound to look at: CC1(C)CC(C(=O)Nc2cnc(-n3nccn3)c(Cl)c2)c2cnc3cc(C(F)F)nn3c21 (single isomer, unassigned)
100 to 1000 nM

Field entry: Cn1ccc(-c2ncc(NC(=O)C3CC(C)(C)c4c3cnc3cc(Cl)nn43)cc2Cl)n1 (single isomer, unassigned)
100 to 1000 nM

Next: CC1(C)C[C@H](C(=O)Nc2cnc([C@H]3CCCO3)c(Cl)c2)c2cnc3cc(Cl)nn3c21 (single isomer, unassigned)
100 to 1000 nM

Repeat for the following compound: C[C@]1(C(F)(F)F)C[C@@H](C(=O)Nc2cnc(-n3nccn3)c(Cl)c2)c2cnc3cc(Cl)nn3c21 (single isomer, unassigned)
≥ 1000 nM

Then what about the compound CCc1cc2ncc3c(n2n1)C(C)(C)CC3C(=O)Nc1cnc(-n2nccn2)c(Cl)c1 (single isomer, unassigned) ?
≥ 1000 nM

Item: CC1(C)CC(C(=O)Nc2cnc(-n3nccn3)c(Cl)c2)c2cnc3cc(C#N)nn3c21 (single isomer, unassigned)
100 to 1000 nM

Entry to check: Cc1cc2ncc3c(n2n1)C(C)(C)C[C@@H]3C(=O)Nc1cnc(-n2nccn2)c(Cl)c1 (single isomer, unassigned)
100 to 1000 nM

Could you do the same for CC1(C)CC(C(=O)Nc2cnc(-n3nccn3)c(Cl)c2)c2cnc3cc(F)nn3c21 (single isomer, unassigned) , please?
10 to 100 nM

More entries:
# query: IC50 of entry CC1(C)CC(C(=O)Nc2cnc(-n3nccn3)c(Cl)c2)c2cnc3cc(Cl)nn3c21 (single isomer, unassigned)
100 to 1000 nM

Repeat for the following compound: CC1(C)CC(C(=O)Nc2cnc(-n3cccn3)c(Cl)c2)c2cnc3cc(Cl)nn3c21 (single isomer, unassigned)
100 to 1000 nM

Similarly, C[C@@]1(C(F)(F)F)C[C@H](C(=O)Nc2cnc(-n3nccn3)c(Cl)c2)c2cnc3cc(Cl)nn3c21 (single isomer, unassigned) ?
100 to 1000 nM
